- assay method text: 14C assay: 14CO2 capture from [14C]-carboxyl-labeled dicamba with IPTG-induced recombinant E. coli cells
- details: IPTG-induced recombinant E. coli cells; 14CO2 from [14C]-carboxyl-labeled dicamba
parameter: Dicamba Decarboxylase Activity

104 (protein, Plasmodium Vivax) MANILQEPIDFLKKEELKNIDLSQMSKKERYKIWKRIPKCELHCHLDLCFSADFFVSCIRKYNLQPNLSDEEVLDYYLFAKGGKSLGEFVEKAIKVADIFHDYEVIEDLAKHAVFNKYKEGVVLMEFRYSPTFVAFKYNLDIELIHQAIVKGIKEVVELLDHKIHVALMCIGDTGHEAANIKASADFCLKHKADFVGFDHGGHEVDLKEYKEIFDYVRESGVPLSVHAGEDVTLPNLNTLYSAIQVLKVERIGHGIRVAESQELIDMVKEKNILLEVCPISNVLLKNAKSMDTHPIRQLYDAGVKVSVNSDDPGMFLTNINDDYEELYTHLNFTLEDFMKMNEWALEKSFMDSNIKDKIKNLYF    No
36 (protein, listed as Agrobacterium sp.) MAQGKVALEEHFAIPETLQDSAGFVPGDYWTELQHRLLDIQDTRLKLMDAHGIETMILSLNAPAVQAIPDKTKAIEIARRANDALAEECAKRPNRFLAFAALPLQDPDAATQELQRCVNDLGFVGALVNGFSQEGDGQIPLYYDLPQYRPFWGEVEKLDVPFYLHPRNPLPQDSRIYDGHPWLLGPTWAFAQETAVHALRLMASGLFDEHPRLNIILGHMGEGLPYMMWRIDHRNAWVKLPPRYPAKRRFVDYFNENFHITTSGNFRTQTLIDAILEIGADRILFSTDWPFENIDHASDWFHATSIAEADRVKIGRTNARRLFKLDGR    High
89 (protein, listed as Erwinia billingiae) MATNRRDFLKNATAVMAGSTVFAGSSHFASAAAVEPAAVQPPRRIIALEEHFMLPEFVGYLHETQQNLRNGLVDKVVTPLSDFGKGRLEIMDKNGVDFAVLSLSGPGVQAEPDRVKAVRLARYANDKLATEMQKNPRRYGGFAHLAMQDPLAAANELERCVKQLHMQGGMINGETDGLYLDDRRYDVFWERVEALNVPIYIHPGNPPDYPHMFAGHPEMWGPVWSWAVETCSHALRLIFSGTFDRYPGARVILGHMGETLPIQLWRLDSRYQIANQTFAIKHPPSWYAKKNITITTSGVCNDAALRCALDSMGSENVMFSIDYPFESTEIAVNWLKTANITEQERNAVAWGNATSILRLGA    High
88 (protein, listed as Starkeya novella) MARKIALEEHFTTPELAGKYVARPTQSDALFADIERRLADFDELRLEMMDRAEIDLMVLSVTTPGVQGVRDTGEAIRLARGANDFLAREVQKRPSRYAGFAHLAMQDAEAAATELERAVRELGFRGALINGQTNGHYLDEDQYAPFWERVQELDVPVYLHPGNMADSPAMFAHRPELGGPIWAWTAETAAHALRLVFGGTFTRFPGAKVILGHMGETLPFLLWRLDSRREFDLGEKLAPDALPSAIIKRNIAVTTSGVCDPAPLVAALQALSDDNVMFSVDYPYEDPQLASKFIETAPIGEETRAKVCHGNAERLLGL    High
51 (protein, listed as Mycobacterium gilvum) MARVIAIEEHYAHPGLQPAEALANLRKHPQLARIQDKLEDLGAGRLADMDAAGIDMQVLSHTVPGAEALPAAQAVDVVRQTNDDLAEVIAAHPDRFAGFAALPMRDPQAAATELQRAVGTLGFCGAMINGLIEGRFLDHPDFTPLLSTAADLGVPLYLHPSFPPPQVAQIYFGGLPPVLADLLATAGWGWHAETALHVLRLISTGVFDRLPELRVIVGHMGEMIPFALARIDTVLSPMTELRQPVAQYFQTNVWFTTSGYTTFPPLQCALSTVGIDRLIFSVDYPYTDNASARALLDTAPISPVDREKLAHATVEALLRV    High
3 (protein, listed as Lactobacillus plantarum) MAKLITVEEHFESAAVTAAMRQAVGNAVLPAVSPALRQYMRDNLPSPAIMQDTQHERLAFMAQYGIDMQVLSYGNSSPQNLSPEQAVPLSQLANDELAKAVVAHPDRYAGLAVLPVGDPQAAVAELNRAVTTLGLRGVLLKGNYQNKFFDEPFFLPIFEAAAALDVPVYFHPSFIPQAVTSHYFESNQWSDVVTGILSSAGYGWHMDVGIQVIRMIASGIFDKLPGLKLISGHWGELVPLFLERLDDELTTYTDLQYPFSTYYRHNVYVTPSGILSAPQLQFMLAEMGADHLMYSIDYPYKQPETSGSFLDIADLTDEQRAQIAFGTATTLFKL    Low
54 (protein, listed as Streptomyces sp.) MAKIIALEEHFSDPAVAKAGAARAQALSPGFAASYSPASGLPYSPSPEVLENLAEKRLADMDAGGITMQVLSGLGAQTVPADVAPALVAGSNDKAAAAVRAHPDRFAAFAALPTAAPEAAVAELDRSINELGFVGTLIMGRTEGEFLDAPRFEPILARAAALKVPVFLHPGVPPREITDSNYAAGLPTGIGTRLQTAAWGWHQETAVHFLHLVHSGVLDRYPGLQFILGHWGEMIPFYLDRVDEALPQRATGLDRSFHEYFRENVYLAPSGMWSQAQLRFCLETVPLERIVFAVDYPFIGNEGAVPFLEKAELPEADKRKIAHENAERLLGL    High

Which value of Dicamba Decarboxylase Activity has been reported for 92 (protein, listed as Chitinophaga pinensis) MARIVTLEEHVSFPEMTALLPEEILKNRKQSGAALQMQEKLADITGERLTSMKAAGISMQVLSVENTDVYLLPDSLAPAFAAKYNDLLADKISSHSDAFAAFAMLPMTVPEAAADELERAVKTHGFCGAMIKGLINGVFLDAPKFAPVFACAEKLGVPLYIHPGIPPKEVIDAYYSNVGDTKGPNEAIACYGWGWHSETAIHILRLLAAGIFDKYPQLNIIIGHMGEMLPMMWERSNRVFQPGNNGKNQRTLIETFRKQLYITTSGIFTQPPLQIAIDTIGIDNILFSIDYPFSSNQMGIDFLTKAALPAEQLAKMAHGNADRILKF in the records?
Yes
